A collection of compounds and their measured SI Axenic amastigote forms
Tested on: L. braziliensis axenic amastigote forms
Test: Axenic amastigote forms assay
Format: cell-based, Leishmania braziliensis
Conditions: IC50 macrophages/IC50 parasite form

compound	relation qualifier	SI Axenic amastigote forms
CC(=O)O[C@H]1[C@H](Oc2c(-c3ccc(O)cc3)oc3cc(O)cc(O)c3c2=O)O[C@H](CO)[C@@H](O)[C@@H]1O [Compound 2]	=	9.6
CC(=O)OC[C@H]1O[C@@H](Oc2c(-c3ccc(OC(C)=O)cc3)oc3cc(OC(C)=O)cc(OC(C)=O)c3c2=O)[C@H](OC(C)=O)[C@@H](OC(C)=O)[C@@H]1OC(C)=O [Compound 3]	=	10.7
CC(=O)O[C@H]1[C@H](Oc2c(-c3ccc(O)c(O)c3)oc3cc(O[C@@H]4O[C@@H](C)[C@H](O)[C@@H](O)[C@H]4O)cc(O)c3c2=O)O[C@H](CO)[C@@H](O)[C@@H]1O [Compound 8, 2′′-acetylpetiolaroside]	>	39.2

###

Test system: L. braziliensis axenic amastigote forms
Assay: Axenic amastigote forms assay
Assay type: cell-based, Leishmania braziliensis
Conditions: in brackets, reference Glucantime
parameter measured: number of times that compound SI exceeds the reference drug SI, Axenic amastigote forms

compound	tested on	result
CC(=O)OC[C@H]1O[C@@H](Oc2c(-c3ccc(OC(C)=O)c(OC(C)=O)c3)oc3cc(O[C@@H]4O[C@@H](C)[C@H](OC(C)=O)[C@@H](OC(C)=O)[C@H]4OC(C)=O)cc(OC(C)=O)c3c2=O)[C@H](OC(C)=O)[C@@H](OC(C)=O)[C@@H]1OC(C)=O [Compound 9, petiolaroside decacetate]	L. braziliensis axenic amastigote forms	40
C[C@H]1O[C@H](Oc2cc(O)c3c(=O)c(O[C@@H]4O[C@H](CO)[C@@H](O)[C@H](O)[C@H]4O)c(-c4ccc(O)c(O)c4)oc3c2)[C@@H](O)[C@@H](O)[C@@H]1O [Compound 7, petiolaroside]	L. braziliensis axenic amastigote forms	103
CC(=O)O[C@H]1[C@H](Oc2c(-c3ccc(O)cc3)oc3cc(O)cc(O)c3c2=O)O[C@H](CO)[C@@H](O)[C@@H]1O	L. braziliensis axenic amastigote forms	19
CC(=O)OC[C@H]1O[C@@H](Oc2cc(OC(C)=O)c3c(=O)c(O[C@@H]4O[C@H](COC(C)=O)[C@@H](OC(C)=O)[C@H](OC(C)=O)[C@H]4OC(C)=O)c(-c4ccc(OC(C)=O)cc4)oc3c2)[C@H](OC(C)=O)[C@@H](OC(C)=O)[C@@H]1OC(C)=O	L. braziliensis axenic amastigote forms	71
CC(=O)O[C@H]1[C@H](Oc2c(-c3ccc(O)c(O)c3)oc3cc(O[C@@H]4O[C@@H](C)[C@H](O)[C@@H](O)[C@H]4O)cc(O)c3c2=O)O[C@H](CO)[C@@H](O)[C@@H]1O [Compound 8, 2′′-acetylpetiolaroside]	L. braziliensis axenic amastigote forms	78
O=c1c(O[C@@H]2O[C@H](CO)[C@@H](O)[C@H](O)[C@H]2O)c(-c2ccc(O)cc2)oc2cc(O)cc(O)c12	L. braziliensis axenic amastigote forms	21
CC(=O)OC[C@H]1O[C@@H](Oc2c(-c3ccc(OC(C)=O)cc3)oc3cc(OC(C)=O)cc(OC(C)=O)c3c2=O)[C@H](OC(C)=O)[C@@H](OC(C)=O)[C@@H]1OC(C)=O	L. braziliensis axenic amastigote forms	21
